Origin of measurements: the kinase profiling compilation of Christmann-Franck et al. (2016)

# per cent of control per entry
Biological target: MAPK9 (human) (UniProt P45984)
Sequence (P45984 whole entry, looked up): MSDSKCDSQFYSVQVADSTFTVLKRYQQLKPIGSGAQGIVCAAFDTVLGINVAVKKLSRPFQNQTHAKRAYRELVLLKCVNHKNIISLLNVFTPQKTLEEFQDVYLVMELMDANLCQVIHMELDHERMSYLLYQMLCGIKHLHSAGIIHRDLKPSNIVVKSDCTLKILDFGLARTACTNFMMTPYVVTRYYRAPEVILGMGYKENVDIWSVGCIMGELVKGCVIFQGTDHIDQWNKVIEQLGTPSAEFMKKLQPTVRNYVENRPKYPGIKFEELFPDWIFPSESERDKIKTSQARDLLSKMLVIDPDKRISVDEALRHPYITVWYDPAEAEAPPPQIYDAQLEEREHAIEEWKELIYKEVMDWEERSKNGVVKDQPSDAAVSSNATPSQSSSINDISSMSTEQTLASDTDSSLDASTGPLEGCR
Conditions: compound 1.0 µM
measure_name: per cent of control (%)

INSERT INTO assay_data (structure_smiles_string, numeric_value) VALUES
  ('COC(=O)Nc1ccc(-c2nc(N3CCOCC3)c3cnn(C4CCN(C(=O)OC)CC4)c3n2)cc1', 92),
  ('CC(C)n1nc(-c2cc3cc(O)ccc3[nH]2)c2c(N)ncnc21', 103),
  ('CCC(=O)N1CCN(c2ccc(-n3c(=O)ccc4cnc5ccc(-c6cnc7ccccc7c6)cc5c43)cc2C(F)(F)F)CC1', 98),
  ('COc1ccc(-c2ccc3c(N4CCOCC4)nc(N4C[C@@H](C)O[C@@H](C)C4)nc3n2)cc1CO', 101);

====

System: EIF2AK4 KD2 (human), Q9P2K8 [S808G]
Experiment: KINOMEscan competition binding
Settings: compound 10.0 µM
measure_name: kinase still bound, per cent of control (%)

INSERT INTO measurements (structure_smiles_string, system_tested, measure_name, numeric_value) VALUES
  ('CCC(=O)N1CCN(c2ccc(-n3c(=O)ccc4cnc5ccc(-c6cnc7ccccc7c6)cc5c43)cc2C(F)(F)F)CC1', 'EIF2AK4 KD2 (human), Q9P2K8 [S808G]', 'kinase still bound, per cent of control', 99),
  ('COc1ccc(-c2ccc3c(N4CCOCC4)nc(N4C[C@@H](C)O[C@@H](C)C4)nc3n2)cc1CO', 'EIF2AK4 KD2 (human), Q9P2K8 [S808G]', 'kinase still bound, per cent of control', 66),
  ('CC(C)n1nc(-c2cc3cc(O)ccc3[nH]2)c2c(N)ncnc21', 'EIF2AK4 KD2 (human), Q9P2K8 [S808G]', 'kinase still bound, per cent of control', 81),
  ('COC(=O)Nc1ccc(-c2nc(N3CCOCC3)c3cnn(C4CCN(C(=O)OC)CC4)c3n2)cc1', 'EIF2AK4 KD2 (human), Q9P2K8 [S808G]', 'kinase still bound, per cent of control', 88);

====

Target: HIPK2 (human) (UniProt Q9H2X6)
Sequence (Q9H2X6 whole entry, looked up): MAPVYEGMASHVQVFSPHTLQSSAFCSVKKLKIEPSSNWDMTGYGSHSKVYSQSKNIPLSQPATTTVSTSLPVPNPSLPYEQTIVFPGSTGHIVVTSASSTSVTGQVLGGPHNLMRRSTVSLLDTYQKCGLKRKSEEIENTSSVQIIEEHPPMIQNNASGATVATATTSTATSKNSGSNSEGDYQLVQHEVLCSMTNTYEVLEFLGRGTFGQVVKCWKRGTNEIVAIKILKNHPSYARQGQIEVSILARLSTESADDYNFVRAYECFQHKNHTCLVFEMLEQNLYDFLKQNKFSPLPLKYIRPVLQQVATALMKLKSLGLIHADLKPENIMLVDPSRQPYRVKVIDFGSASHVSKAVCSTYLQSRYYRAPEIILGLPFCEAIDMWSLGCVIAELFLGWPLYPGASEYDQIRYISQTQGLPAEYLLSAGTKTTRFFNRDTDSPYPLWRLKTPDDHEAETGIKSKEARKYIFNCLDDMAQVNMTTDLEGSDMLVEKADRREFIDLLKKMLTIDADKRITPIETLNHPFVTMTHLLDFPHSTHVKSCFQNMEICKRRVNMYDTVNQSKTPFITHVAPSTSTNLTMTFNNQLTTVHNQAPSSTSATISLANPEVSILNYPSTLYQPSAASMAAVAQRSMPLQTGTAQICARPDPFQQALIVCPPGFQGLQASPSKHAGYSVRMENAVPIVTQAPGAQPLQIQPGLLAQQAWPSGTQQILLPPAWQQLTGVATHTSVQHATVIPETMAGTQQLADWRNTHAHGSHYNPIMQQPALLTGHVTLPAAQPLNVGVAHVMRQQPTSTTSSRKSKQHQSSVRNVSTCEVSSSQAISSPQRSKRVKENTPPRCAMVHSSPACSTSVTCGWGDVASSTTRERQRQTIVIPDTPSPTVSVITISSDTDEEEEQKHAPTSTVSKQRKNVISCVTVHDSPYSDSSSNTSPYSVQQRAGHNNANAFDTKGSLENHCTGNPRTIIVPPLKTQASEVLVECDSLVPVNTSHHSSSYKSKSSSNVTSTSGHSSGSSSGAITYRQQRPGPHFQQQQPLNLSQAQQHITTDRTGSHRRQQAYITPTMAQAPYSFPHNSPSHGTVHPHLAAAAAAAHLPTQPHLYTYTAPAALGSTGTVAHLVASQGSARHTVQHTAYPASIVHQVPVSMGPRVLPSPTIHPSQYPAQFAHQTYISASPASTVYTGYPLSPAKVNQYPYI
Settings: compound 10.0 µM
# per cent of control per entry
measure_name: per cent of control (%)

INSERT INTO measurements (structure_smiles_string, numeric_value) VALUES
  ('CC(C)n1nc(-c2cc3cc(O)ccc3[nH]2)c2c(N)ncnc21', 7),
  ('COC(=O)Nc1ccc(-c2nc(N3CCOCC3)c3cnn(C4CCN(C(=O)OC)CC4)c3n2)cc1', 94),
  ('COc1ccc(-c2ccc3c(N4CCOCC4)nc(N4C[C@@H](C)O[C@@H](C)C4)nc3n2)cc1CO', 89),
  ('CCC(=O)N1CCN(c2ccc(-n3c(=O)ccc4cnc5ccc(-c6cnc7ccccc7c6)cc5c43)cc2C(F)(F)F)CC1', 88);

====

# per cent of control per entry
Target: MELK (human)
Conditions: compound 1.0 µM
measure_name: per cent of control (%)

INSERT INTO measurements (structure_smiles_string, measure_name, reading_unit, numeric_value) VALUES
  ('CCC(=O)N1CCN(c2ccc(-n3c(=O)ccc4cnc5ccc(-c6cnc7ccccc7c6)cc5c43)cc2C(F)(F)F)CC1', 'per cent of control', '%', 63),
  ('CC(C)n1nc(-c2cc3cc(O)ccc3[nH]2)c2c(N)ncnc21', 'per cent of control', '%', 26),
  ('COc1ccc(-c2ccc3c(N4CCOCC4)nc(N4C[C@@H](C)O[C@@H](C)C4)nc3n2)cc1CO', 'per cent of control', '%', 91),
  ('COC(=O)Nc1ccc(-c2nc(N3CCOCC3)c3cnn(C4CCN(C(=O)OC)CC4)c3n2)cc1', 'per cent of control', '%', 87);

====

Biological target: TGFBR1 (human)
Experiment: KINOMEscan competition binding
Details: compound 10.0 µM
measure_name: kinase still bound, per cent of control (%)

INSERT INTO results (structure_smiles_string, reading_unit, numeric_value) VALUES
  ('CCC(=O)N1CCN(c2ccc(-n3c(=O)ccc4cnc5ccc(-c6cnc7ccccc7c6)cc5c43)cc2C(F)(F)F)CC1', '%', 70),
  ('COC(=O)Nc1ccc(-c2nc(N3CCOCC3)c3cnn(C4CCN(C(=O)OC)CC4)c3n2)cc1', '%', 100),
  ('CC(C)n1nc(-c2cc3cc(O)ccc3[nH]2)c2c(N)ncnc21', '%', 1.1),
  ('COc1ccc(-c2ccc3c(N4CCOCC4)nc(N4C[C@@H](C)O[C@@H](C)C4)nc3n2)cc1CO', '%', 100);

====

Target: MAP3K2 (human)
Test: KINOMEscan competition binding
Settings: compound 10.0 µM
# kinase still bound, per cent of control per entry
measure_name: kinase still bound, per cent of control (%)

INSERT INTO assay_data (structure_smiles_string, reading_unit, numeric_value) VALUES
  ('COC(=O)Nc1ccc(-c2nc(N3CCOCC3)c3cnn(C4CCN(C(=O)OC)CC4)c3n2)cc1', '%', 89),
  ('COc1ccc(-c2ccc3c(N4CCOCC4)nc(N4C[C@@H](C)O[C@@H](C)C4)nc3n2)cc1CO', '%', 78),
  ('CC(C)n1nc(-c2cc3cc(O)ccc3[nH]2)c2c(N)ncnc21', '%', 4.8),
  ('CCC(=O)N1CCN(c2ccc(-n3c(=O)ccc4cnc5ccc(-c6cnc7ccccc7c6)cc5c43)cc2C(F)(F)F)CC1', '%', 62);

====

# kinase still bound, per cent of control per entry
Target: SLK (human) (UniProt Q9H2G2)
Sequence (Q9H2G2 whole entry, looked up): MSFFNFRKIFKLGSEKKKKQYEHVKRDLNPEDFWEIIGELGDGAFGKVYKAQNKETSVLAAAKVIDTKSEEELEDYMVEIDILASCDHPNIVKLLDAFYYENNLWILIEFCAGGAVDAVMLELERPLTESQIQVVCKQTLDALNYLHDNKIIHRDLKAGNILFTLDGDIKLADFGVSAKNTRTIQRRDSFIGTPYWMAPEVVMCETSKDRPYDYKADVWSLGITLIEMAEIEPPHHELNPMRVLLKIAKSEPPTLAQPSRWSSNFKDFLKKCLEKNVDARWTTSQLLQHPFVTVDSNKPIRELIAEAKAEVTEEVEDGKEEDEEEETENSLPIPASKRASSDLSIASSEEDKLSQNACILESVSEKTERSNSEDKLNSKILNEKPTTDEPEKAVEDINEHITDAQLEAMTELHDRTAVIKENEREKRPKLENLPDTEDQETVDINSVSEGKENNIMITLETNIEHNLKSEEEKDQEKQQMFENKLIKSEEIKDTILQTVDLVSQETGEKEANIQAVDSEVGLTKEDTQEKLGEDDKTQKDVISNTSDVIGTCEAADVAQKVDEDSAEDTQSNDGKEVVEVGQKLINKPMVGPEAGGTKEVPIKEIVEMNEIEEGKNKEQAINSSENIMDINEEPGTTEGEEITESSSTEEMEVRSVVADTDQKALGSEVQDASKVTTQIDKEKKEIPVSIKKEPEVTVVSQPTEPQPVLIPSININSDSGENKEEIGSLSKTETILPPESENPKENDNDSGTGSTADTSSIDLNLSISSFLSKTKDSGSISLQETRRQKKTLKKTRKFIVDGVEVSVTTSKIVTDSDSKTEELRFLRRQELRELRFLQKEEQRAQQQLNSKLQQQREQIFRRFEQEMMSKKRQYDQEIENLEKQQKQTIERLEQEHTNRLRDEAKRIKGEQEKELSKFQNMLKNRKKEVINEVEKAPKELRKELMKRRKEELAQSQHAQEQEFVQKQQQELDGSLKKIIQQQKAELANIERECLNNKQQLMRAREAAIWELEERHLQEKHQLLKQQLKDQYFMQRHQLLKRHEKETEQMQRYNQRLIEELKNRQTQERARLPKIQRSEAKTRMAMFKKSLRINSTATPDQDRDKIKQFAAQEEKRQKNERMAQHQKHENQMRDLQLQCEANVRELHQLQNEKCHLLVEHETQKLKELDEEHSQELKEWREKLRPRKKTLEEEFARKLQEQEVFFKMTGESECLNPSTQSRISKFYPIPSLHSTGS
Experiment: KINOMEscan competition binding
Conditions: compound 10.0 µM
measure_name: kinase still bound, per cent of control (%)

INSERT INTO results (structure_smiles_string, system_tested, numeric_value) VALUES
  ('COC(=O)Nc1ccc(-c2nc(N3CCOCC3)c3cnn(C4CCN(C(=O)OC)CC4)c3n2)cc1', 'SLK (human) (UniProt Q9H2G2)', 70),
  ('CCC(=O)N1CCN(c2ccc(-n3c(=O)ccc4cnc5ccc(-c6cnc7ccccc7c6)cc5c43)cc2C(F)(F)F)CC1', 'SLK (human) (UniProt Q9H2G2)', 94),
  ('COc1ccc(-c2ccc3c(N4CCOCC4)nc(N4C[C@@H](C)O[C@@H](C)C4)nc3n2)cc1CO', 'SLK (human) (UniProt Q9H2G2)', 98),
  ('CC(C)n1nc(-c2cc3cc(O)ccc3[nH]2)c2c(N)ncnc21', 'SLK (human) (UniProt Q9H2G2)', 0.2);

====

Target: MYLK (human) (UniProt Q15746)
Sequence (Q15746 whole entry, looked up): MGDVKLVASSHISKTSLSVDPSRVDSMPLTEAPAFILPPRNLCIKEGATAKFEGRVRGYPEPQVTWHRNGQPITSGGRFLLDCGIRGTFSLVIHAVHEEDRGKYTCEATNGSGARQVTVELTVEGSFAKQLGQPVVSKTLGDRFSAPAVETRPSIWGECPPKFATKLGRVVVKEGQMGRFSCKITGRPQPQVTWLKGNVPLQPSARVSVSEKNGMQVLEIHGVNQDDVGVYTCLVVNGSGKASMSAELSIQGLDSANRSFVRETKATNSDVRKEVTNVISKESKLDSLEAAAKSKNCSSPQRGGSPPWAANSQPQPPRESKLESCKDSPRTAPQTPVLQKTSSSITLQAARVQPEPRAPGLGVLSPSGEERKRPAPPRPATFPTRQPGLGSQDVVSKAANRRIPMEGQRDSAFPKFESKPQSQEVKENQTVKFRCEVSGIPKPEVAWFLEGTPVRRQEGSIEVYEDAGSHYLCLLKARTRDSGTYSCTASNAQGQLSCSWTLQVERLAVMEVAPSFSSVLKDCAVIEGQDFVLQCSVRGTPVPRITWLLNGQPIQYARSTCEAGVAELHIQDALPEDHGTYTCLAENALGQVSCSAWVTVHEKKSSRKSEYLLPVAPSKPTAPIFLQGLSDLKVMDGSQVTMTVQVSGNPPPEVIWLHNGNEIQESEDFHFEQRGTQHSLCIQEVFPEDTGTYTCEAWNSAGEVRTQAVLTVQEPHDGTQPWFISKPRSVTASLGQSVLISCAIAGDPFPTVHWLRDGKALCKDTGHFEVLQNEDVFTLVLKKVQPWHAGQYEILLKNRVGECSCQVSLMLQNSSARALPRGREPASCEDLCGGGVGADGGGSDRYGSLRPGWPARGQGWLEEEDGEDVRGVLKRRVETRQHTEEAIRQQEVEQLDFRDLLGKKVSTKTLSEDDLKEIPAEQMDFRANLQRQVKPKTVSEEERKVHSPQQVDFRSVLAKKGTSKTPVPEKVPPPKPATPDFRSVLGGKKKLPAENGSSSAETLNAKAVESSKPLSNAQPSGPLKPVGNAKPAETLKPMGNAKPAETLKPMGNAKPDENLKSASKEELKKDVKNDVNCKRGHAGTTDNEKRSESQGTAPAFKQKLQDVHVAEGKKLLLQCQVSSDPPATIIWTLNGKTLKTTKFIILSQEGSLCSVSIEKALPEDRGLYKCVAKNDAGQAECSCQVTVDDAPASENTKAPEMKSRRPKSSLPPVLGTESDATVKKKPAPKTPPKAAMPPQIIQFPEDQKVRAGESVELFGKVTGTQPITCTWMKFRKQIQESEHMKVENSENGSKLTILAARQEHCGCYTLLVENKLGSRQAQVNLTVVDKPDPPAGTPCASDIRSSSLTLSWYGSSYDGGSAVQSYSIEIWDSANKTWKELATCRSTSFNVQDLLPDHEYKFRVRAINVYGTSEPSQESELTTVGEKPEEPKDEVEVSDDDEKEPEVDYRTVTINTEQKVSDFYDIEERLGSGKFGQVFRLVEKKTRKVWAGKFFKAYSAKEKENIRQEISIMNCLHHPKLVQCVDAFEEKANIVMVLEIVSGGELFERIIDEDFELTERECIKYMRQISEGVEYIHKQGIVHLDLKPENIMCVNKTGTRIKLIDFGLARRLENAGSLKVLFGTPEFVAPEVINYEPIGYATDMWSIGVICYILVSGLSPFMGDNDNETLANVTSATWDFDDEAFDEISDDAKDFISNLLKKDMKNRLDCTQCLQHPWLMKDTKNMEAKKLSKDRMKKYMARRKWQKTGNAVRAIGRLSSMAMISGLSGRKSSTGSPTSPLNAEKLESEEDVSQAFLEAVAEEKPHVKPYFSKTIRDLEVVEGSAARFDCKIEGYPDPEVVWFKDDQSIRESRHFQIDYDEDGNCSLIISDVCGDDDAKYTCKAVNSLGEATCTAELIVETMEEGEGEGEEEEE
Assay: KINOMEscan competition binding
Details: compound 10.0 µM
measure_name: per cent of control

INSERT INTO results (structure_smiles_string, result) VALUES
  ('COC(=O)Nc1ccc(-c2nc(N3CCOCC3)c3cnn(C4CCN(C(=O)OC)CC4)c3n2)cc1', '81%'),
  ('CCC(=O)N1CCN(c2ccc(-n3c(=O)ccc4cnc5ccc(-c6cnc7ccccc7c6)cc5c43)cc2C(F)(F)F)CC1', '87%'),
  ('CC(C)n1nc(-c2cc3cc(O)ccc3[nH]2)c2c(N)ncnc21', '0.9%'),
  ('COc1ccc(-c2ccc3c(N4CCOCC4)nc(N4C[C@@H](C)O[C@@H](C)C4)nc3n2)cc1CO', '57%');

====

# kinase still bound, per cent of control per entry
Target: STK38 (human) (UniProt Q15208)
Assay: KINOMEscan competition binding
Details: compound 10.0 µM
measure_name: kinase still bound, per cent of control (%)

INSERT INTO measurements (structure_smiles_string, system_tested, numeric_value) VALUES
  ('CC(C)n1nc(-c2cc3cc(O)ccc3[nH]2)c2c(N)ncnc21', 'STK38 (human) (UniProt Q15208)', 60),
  ('COC(=O)Nc1ccc(-c2nc(N3CCOCC3)c3cnn(C4CCN(C(=O)OC)CC4)c3n2)cc1', 'STK38 (human) (UniProt Q15208)', 88),
  ('CCC(=O)N1CCN(c2ccc(-n3c(=O)ccc4cnc5ccc(-c6cnc7ccccc7c6)cc5c43)cc2C(F)(F)F)CC1', 'STK38 (human) (UniProt Q15208)', 100),
  ('COc1ccc(-c2ccc3c(N4CCOCC4)nc(N4C[C@@H](C)O[C@@H](C)C4)nc3n2)cc1CO', 'STK38 (human) (UniProt Q15208)', 55);

====

# per cent of control per entry
Target: PRKACA (human)
Settings: compound 1.0 µM
measure_name: per cent of control (%)

INSERT INTO measurements (structure_smiles_string, numeric_value) VALUES
  ('CC(C)n1nc(-c2cc3cc(O)ccc3[nH]2)c2c(N)ncnc21', 94),
  ('CCC(=O)N1CCN(c2ccc(-n3c(=O)ccc4cnc5ccc(-c6cnc7ccccc7c6)cc5c43)cc2C(F)(F)F)CC1', 106),
  ('COc1ccc(-c2ccc3c(N4CCOCC4)nc(N4C[C@@H](C)O[C@@H](C)C4)nc3n2)cc1CO', 115),
  ('COC(=O)Nc1ccc(-c2nc(N3CCOCC3)c3cnn(C4CCN(C(=O)OC)CC4)c3n2)cc1', 103);
